# Tested on: HOP-92 NSCLC
# assay_summary: NCI-60 one-dose screen, 48 h (100 = growth as untreated, 0 = no growth, -100 = all killed)
# stated_conditions: 10 µM unless noted
The panel holds about 83,000 compounds, 20% with a hit somewhere; the sample as a whole holds those more often.
Entry flag: Y if growth reaches 60%; N if it does not.

>>> class_assignment("Cc1ccc2sc3c(NCCCNCCO)nc4ccccc4c3c(=O)c2c1")
"N"
>>> class_assignment("CCn1c(Cc2ccccc2Nc2c(Cl)cccc2Cl)nnc1SCC(=O)NN1C(=O)/C(=C/c2cccc(OC)c2OC)SC1=S")
"Y"
>>> class_assignment("CCOC(=O)C1=C(C)c2ccc(OC)c(OC)c2C1")
"Y"
>>> class_assignment("COc1ccc(-c2nnc(COc3ccc(C(=O)/C=C/c4ccco4)cc3)o2)cc1")
"Y"
>>> class_assignment("CCCC(c1nnnn1C1CCCCC1)N1CCN(C(=O)c2ccco2)CC1 (configuration not stated)")
"N"
>>> class_assignment("CN(C)c1ccc(/C=C/c2ccnc3c(O)cccc23)cc1")
"N"
>>> class_assignment("Nc1n[nH]c2ccc([C@@H]3Nc4ccc5[nH]ncc5c4[C@H]4[C@H]5CCC(C5)[C@H]43)cc12")
"N"
>>> class_assignment("C=C1C(=O)O[C@H]2[C@H]1CC/C(COC(=O)/C=C\\C(=O)O)=C\\CC[C@@]1(C)O[C@@H]21")
"Y"
>>> class_assignment("CCOC(=O)c1sc(-c2ccc(OS(=O)(=O)C[C@]34CCC(CC3=O)C4(C)C)c(C=O)c2)nc1C")
"N"
>>> class_assignment("CCOc1ccc2nc(C)cc(Nc3ccc(Br)cc3)c2c1")
"Y"
>>> class_assignment("CCOC(=O)c1c2c(n3cccc(Cl)c13)C(=O)c1ncccc1C2=O")
"Y"
>>> class_assignment("Nc1nonc1-n1nncc1-c1cccnc1")
"Y"
>>> class_assignment("C=C(C)CCC(C)N1CCC(N2CCC(C(=O)NCCc3ccccc3)CC2)CC1 (configuration not stated)")
"Y"
>>> class_assignment("O=c1oc2ccc(Cl)cc2c(=O)n1-c1ccc(I)cc1F")
"N"
>>> class_assignment("CN(C)CCNc1cc(-c2ccccc2)nc2ccccc12")
"N"
>>> class_assignment("Nc1ccc(-c2nn3c(CCC(=O)c4nc5ncccc5[nH]4)nnc3s2)c(O)c1")
"Y"
>>> class_assignment("O=c1oc2ccc(Cl)cc2c(=O)n1-c1cc(C(F)(F)F)cc(C(F)(F)F)c1")
"N"
>>> class_assignment("O=C(c1ccccc1)N(CCc1ccc(Cl)cc1)C(=S)N(C(=O)c1ccccc1)c1ccccc1")
"Y"
>>> class_assignment("CCOC(=O)CSc1c(-c2ccccc2)c2cc(Cl)ccc2[nH]c1=O")
"Y"
>>> class_assignment("Nc1no[n+]([O-])c1-c1nnc2c(n1)-c1ccccc1C2=O")
"N"
>>> class_assignment("CCOC(=O)c1ccc2[nH]c(-c3ccccc3)cc(=O)c2c1")
"Y"
>>> class_assignment("O=c1c2cc(F)ccc2sc2c(Nc3ccncc3)nc3ccccc3c12")
"N"

###

# System: SF-295 CNS
# assay_summary: NCI-60 one-dose screen, 48 h
# stated_conditions: 10 µM unless noted
# Experimental: Cells are grown in 96 well plates and exposed to the test compound for 48 hours. Compounds are tested at a single concentration, which is 10^-5 M for most compounds. The reported endpoint is percent growth (GI% or GIPRCNT), where numbers from 0 - 100% represent growth inhibition, and numbers from -100% - 0 represent cell death. For example, a value of 40 represents 60% growth inhibition. A value of 0 means no net growth occurred over the course of the experiment. […]
About 83,000 compounds went through this panel and 20% of them were active in at least one assay; those are over-represented in the sample as a whole. Activity calls are given as the source filed them. How the source made its calls: active means growth percent below 10; inactive means the rest.
Outcomes: active, inactive

>>> class_assignment("Cc1nc2ccccc2c(/C=C/c2ccc(F)cc2)c1C(N)=O")
"inactive"
>>> class_assignment("O=C(Cn1cc(COc2ncnc3c2cnn3-c2ccccc2)nn1)Nc1ccccn1")
"inactive"
>>> class_assignment("O=c1oc2ccc(-c3ccc(F)cc3F)cc2c(=O)n1-c1cccc(C(F)(F)F)c1")
"active"
>>> class_assignment("O=C1c2cc(I)ccc2Oc2cc([N+](=O)[O-])ccc2N1c1ccc(Cl)cc1F")
"inactive"
>>> class_assignment("O=C(Nc1ccc(F)c(Cl)c1)Nc1ccc(Cl)c(Cl)c1")
"inactive"
>>> class_assignment("Oc1[nH]c2ccccc2c1N=Nc1nnc2n1N=C(c1ccccc1)CS2")
"inactive"
>>> class_assignment("COc1ccc(OC)c(/C=C/C(=O)c2c(C)nc3ccccc3c2/C=C/c2ccccc2)c1")
"inactive"
>>> class_assignment("COC(=O)/C(CCC=C(C)C)=C1\\[C@@H](OC(C)=O)C[C@@]2(C)[C@H]1C[C@@H](O)[C@H]1[C@@]3(C)CC[C@H](NC(=O)c4cnccn4)[C@@H](C)[C@@H]3CC[C@@]12C")
"inactive"
>>> class_assignment("O=C(CCc1nnc2sc(Cc3ccccc3Cl)nn12)c1nc2ncccc2[nH]1")
"inactive"
>>> class_assignment("COc1ccc(CCN2C(=O)CCSC2=S)cc1")
"inactive"
>>> class_assignment("COc1ccc(C2=C(c3cccc(OC)c3)C(=O)c3ccc(C)nc3C2=O)cc1")
"inactive"
>>> class_assignment("O=c1oc2ccc(Br)cc2c(=O)n1-c1ccc(Cl)cc1F")
"active"
>>> class_assignment("COc1ccc(C2c3ccc4ccccc4c3Oc3ncn(CCCn4ccnc4)c(=N)c32)cc1OC (stereo not given)")
"active"
>>> class_assignment("Cc1nc2ccccc2c(/C=C/c2ccccc2)c1C(=O)/C=C/c1ccc(Cl)cc1")
"inactive"
>>> class_assignment("COC(=O)C1=Nc2ccc(F)cc2/C1=C/c1sc(=S)[nH]c1O")
"inactive"
>>> class_assignment("CCOC(=O)C1(C(=O)OCC)N=C(c2ccccc2)C=C1c1ccccc1")
"inactive"
>>> class_assignment("O=C(CSc1nc2ccccc2c(=O)n1-c1ccccc1)Nc1ccc(C(=O)/C=C/c2ccc(Cl)cc2)cc1")
"inactive"
>>> class_assignment("O=c1oc2ccc(-c3ccc(F)cc3F)cc2c(=O)n1-c1ccc(Cl)c(C(F)(F)F)c1")
"inactive"
>>> class_assignment("Oc1c(C(Nc2ccccn2)c2cccc(Oc3ccccc3)c2)ccc2cccnc12 (stereo not given)")
"active"
>>> class_assignment("O=Cc1cc2ccccc2nc1Nc1nccs1")
"inactive"
